- test_target: D(4) dopamine receptor (Homo sapiens)
- Sequence (P21917 whole entry): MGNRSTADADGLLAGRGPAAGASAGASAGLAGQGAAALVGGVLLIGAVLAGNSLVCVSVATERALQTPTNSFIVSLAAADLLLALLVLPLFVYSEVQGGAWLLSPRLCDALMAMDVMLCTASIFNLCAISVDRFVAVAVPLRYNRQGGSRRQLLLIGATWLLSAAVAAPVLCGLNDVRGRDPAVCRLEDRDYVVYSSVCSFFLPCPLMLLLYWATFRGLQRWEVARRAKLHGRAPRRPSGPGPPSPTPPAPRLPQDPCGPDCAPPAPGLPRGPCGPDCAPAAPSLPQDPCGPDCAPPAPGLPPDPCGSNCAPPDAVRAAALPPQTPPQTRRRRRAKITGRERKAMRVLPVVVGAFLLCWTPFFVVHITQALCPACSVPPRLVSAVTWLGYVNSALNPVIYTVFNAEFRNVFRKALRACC
- experiment: Displacement of [3H]spiperone from human dopamine D4 receptor transfected in HEK293 cells after 2 hrs by scintillation counting analysis
- Format: cell-based
- experimental_conditions: read-out: Ki
test_readout: pKi
// pKi is dimensionless: -log10 of concentration (M)

Give the reported value of pKi for this record: CCCCCCNC[C@H]1CCc2ccc(O)cc2O1
8.24

Identify measured pKi associated with Oc1ccc2c(c1)O[C@@H](CNCCN1CCN(c3ccc(OCCF)cc3)CC1)CC2
7.56

Dear colleague, please send me the reported pKi for Oc1ccc2c(c1)O[C@@H](CN1CCN(c3ccc(I)cc3)CC1)CC2 when you can.
7.84

Entry Oc1ccc2c(c1)O[C@@H](CNCc1ccc(OCCCCF)cc1)CC2 needs its pKi filled in; supply it.
7.49
